# Tested on: MDA-MB-468 breast
# PROTOCOL_DESCRIPTION: NCI tumour cell line growth inhibition, 48 h
PROPERTY_MEASURED: GI50

# input I have this compound here, `C#CCn1cnc2cnc(Nc3cccc(NC(=O)CCl)c3)nc21` , and I need its recorded GI50.
# output 8130 nM

# input Record: `COc1cc2ccnc(C=O)c2cc1OC`
# output 31900 nM

----------
# System: MDA-MB-468 breast
# PROTOCOL_DESCRIPTION: NCI tumour cell line growth inhibition, 48 h
Classify by TGI. Ranges: b0 = under 3 µM, b1 = from 3 µM up to 6 µM, b2 = 6 µM and over

A selection of reference data follows.
- COMPOUND: "O=C(NNc1nc2cc(F)c(F)cc2n2cccc12)c1ccncn1"
  LABEL: "b0"
- COMPOUND: "CC(=O)/C=C/c1ccc(OCc2ccc(C(C)(C)C)cc2)cc1"
  LABEL: "b2"
- COMPOUND: "COc1cc(/C=C/c2cc(/C=C/c3ccc(O)c(OC)c3)n(-c3c(Cl)cccc3Cl)c(=O)n2)ccc1O"
  LABEL: "b2"
- COMPOUND: "O=c1c2cc(F)ccc2sc2c(Nc3ccncc3)nc3ccccc3c12"
  LABEL: "b1"

# input Could you place `COc1ccc(CC(C)=C(c2ccc(OCCN3CCCCCC3)cc2)c2ccc(OCCN3CCCCCC3)cc2)cc1` in its proper category? Many thanks.
# output b0

# input Record: CNC(=O)NCC1OC(n2cnc3c(NC(=O)Nc4ccccc4)ncnc32)C(O[Si](C)(C)C(C)(C)C)C1CC(=O)N(C)OC (configuration not stated)
# output b2

# input Record: `CCNCc1c(-c2cccc(OC(F)(F)F)c2)[nH]c2ccc(N3CCCC3)cc2c1=O`
# output b1

# input Record: `COc1ccc(/C=C/C(=O)c2cc3c(N)c(C(=O)Nc4cccc(Cl)c4C)sc3nc2C)cc1`
# output b0

# input Record: CC1(C)C(N(O)C(=O)Nc2ccc(Cl)cc2)N(c2ccc(Cl)cc2)C(=O)N1CC(=O)N/N=C/C=C/c1ccc([N+](=O)[O-])o1 (configuration not stated)
# output b1

# input Record: `C#CCn1cnc2cnc(Nc3cccc(NC(=O)CCl)c3)nc21`
# output b2

# input Record: `COc1cc2c3c(n(CCCNC4CCC4)c(=O)c2cc1OC)-c1cc2c(cc1C3=O)OCO2`
# output b1

# input Record: `O=C(c1ccc(Cl)cc1)c1no[n+]([O-])c1C(=O)c1ccc(Cl)cc1`
# output b2

----------
# System: MDA-MB-468 breast
# PROTOCOL_DESCRIPTION: NCI tumour cell line growth inhibition, 48 h; in the data active means GI50 below about 0.43 µM; inactive means the rest
Please state which outcome applies, choosing from active, inactive

A selection of reference data follows.
- COMPOUND: "CCNC(=O)N1CCc2cc(OC)c(OCCc3ccc(OC)c(N)c3)cc2C1c1ccc(C)cc1C (stereo not drawn)"
  LABEL: "active"
- COMPOUND: "COc1cc2c(cc1OCCCCCn1c(-c3ccc(OCc4ccccc4)cc3)nc3cc(N4CCOCC4)ccc31)N=C[C@@H]1CCCN1C2=O"
  LABEL: "inactive"

# input Write down the call the test reported for this compound. Item: `CCNCc1c(-c2cccc(OC(F)(F)F)c2)[nH]c2ccc(N3CCCC3)cc2c1=O`
# output inactive

# input Record: CC1(C)C(N(O)C(=O)Nc2ccc(Cl)cc2)N(c2ccc(Cl)cc2)C(=O)N1CC(=O)N/N=C/C=C/c1ccc([N+](=O)[O-])o1 (stereo not drawn)
# output inactive

# input Record: `CC(=O)c1ccc(Nc2nc(SCCC(C)C)nc(-c3ccc(F)cc3)c2C#N)cc1`
# output inactive

# input Record: `COc1cc2c(cc1I)-c1c(cc(OC)c(OC)c1OC)CC[C@@H]2NC(C)=O`
# output active

# input Record: `CCn1c(=O)c(Oc2ccc(F)cc2F)cc2cnc(NC3CCOCC3)nc21`
# output inactive

# input Record: `Nc1nonc1C(=Nc1ccc(F)c(Cl)c1)NO`
# output inactive

Values compiled from PubChem BioAssay (NCI).
